Quick reference for DC50 among some compounds
MEASURED_TARGET: IRAK4 (Homo sapiens)
Construct: endogenous in cells; host or cells: OCI-LY10
MEASUREMENT_DESCRIPTION: IRAK4 MSD degradation in OCI-LY10
Format: cell-based
MEASUREMENT_CONDITIONS: OCI-LY10 cells, 24 hrs, Meso Scale Discovery

Solved entries (count: 4):
[
  {
    "COMPOUND": "O=C1CC[C@@H](c2ccc(N3CC(N4CCN([C@H]5CC[C@H](n6cc(NC(=O)c7cnn8ccc(N9C[C@H]%10C[C@@H]9CO%10)nc78)c(C(F)F)n6)CC5)CC4)C3)cc2Cl)C(=O)N1 [I-125]",
    "RESULT_VALUE": "10 to 100 nM"
  },
  {
    "COMPOUND": "COc1cc2nc([C@H]3CC[C@H](CN4CCC5(CCN(c6cccc7c6n(C)c(=O)n7C6CCC(=O)NC6=O)CC5)C(F)(F)C4)CC3)sc2cc1NC(=O)c1cncc(C#N)c1 (some centres unmarked) [I-150]",
    "RESULT_VALUE": "> 200 nM"
  },
  {
    "COMPOUND": "Cn1c(=O)n(C2CCC(=O)NC2=O)c2ccc(F)c([C@H]3CCN(C[C@H]4CC[C@H](n5cc6cc(NC(=O)c7cncc(C(F)(F)F)n7)ccc6n5)CC4)C[C@@H]3F)c21 (single isomer, unassigned) [I-353]",
    "RESULT_VALUE": "10 to 100 nM"
  },
  {
    "COMPOUND": "Cn1c(=O)n(C2CCC(=O)NC2=O)c2cccc([C@@H]3CCN(C[C@H]4CC[C@H](c5cn6cc(NC(=O)c7cccc(C(F)(F)F)c7)ccc6n5)CC4)C[C@H]3F)c21 (some centres unmarked) [I-274]",
    "RESULT_VALUE": "< 10 nM"
  }
]

Let's switch to this compound now.
So for Cn1c(=O)n(C2CCC(=O)NC2=O)c2cccc(N3CCN(C[C@H]4CC[C@H](n5cc6cc(NC(=O)c7cncc(C(F)(F)F)n7)ccc6n5)CC4)CC3=O)c21 (some centres unmarked) [I-350] , the logged DC50 turned out to be < 10 nM

====

MEASURED_TARGET: IRAK4 (Homo sapiens, UniProt Q9NWZ3)
Construct: endogenous in cells; host or cells: OCI-LY10
Sequence (Q9NWZ3 whole entry): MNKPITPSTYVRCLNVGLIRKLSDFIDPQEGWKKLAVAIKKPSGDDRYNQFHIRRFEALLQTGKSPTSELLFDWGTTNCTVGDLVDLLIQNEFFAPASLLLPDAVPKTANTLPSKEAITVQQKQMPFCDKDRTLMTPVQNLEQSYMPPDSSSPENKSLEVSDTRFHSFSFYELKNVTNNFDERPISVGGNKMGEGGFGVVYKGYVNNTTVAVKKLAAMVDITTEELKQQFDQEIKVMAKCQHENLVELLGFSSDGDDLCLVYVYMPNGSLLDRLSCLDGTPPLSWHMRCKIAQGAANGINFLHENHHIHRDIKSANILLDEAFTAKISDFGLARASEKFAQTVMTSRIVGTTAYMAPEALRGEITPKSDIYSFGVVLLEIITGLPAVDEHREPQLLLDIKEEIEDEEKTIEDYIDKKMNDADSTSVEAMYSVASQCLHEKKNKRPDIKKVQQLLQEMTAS
MEASUREMENT_DESCRIPTION: IRAK4 MSD degradation in OCI-LY10
Format: cell-based
MEASUREMENT_CONDITIONS: OCI-LY10 cells, 24 hrs, Meso Scale Discovery
Quick reference for DC50 among some compounds

So for Cn1nc(C2CCC(=O)NC2=O)c2cccc([C@H]3CCN(C[C@H]4CC[C@H](n5cc6cc(NC(=O)c7cncc(C(F)(F)F)n7)ncc6n5)CC4)C[C@@H]3F)c21 (single isomer, unassigned) , the logged DC50 turned out to be 10 to 100 nM

So for CN(C[C@H]1CC[C@H](n2cc(NC(=O)c3cnn4cccnc34)c(C(F)F)n2)CC1)[C@H]1CCN(c2cccc3c2n(C)c(=O)n3C2CCC(=O)NC2=O)CC1(F)F (stereo partly drawn) , the logged DC50 turned out to be 10 to 100 nM

So for CN(C[C@H]1CC[C@H](n2cc3cc(NC(=O)c4cccc(C(F)(F)F)n4)c(C(C)(C)O)cc3n2)CC1)[C@@H]1CCN(c2cccc3c2n(C)c(=O)n3C2CCC(=O)NC2=O)C[C@H]1F (stereo partly drawn) , the logged DC50 turned out to be < 10 nM

====

Quick reference for DC50 among some compounds
MEASURED_TARGET: IRAK4 (Homo sapiens, UniProt Q9NWZ3)
Construct: endogenous in cells; host or cells: OCI-LY10
MEASUREMENT_DESCRIPTION: IRAK4 MSD degradation in OCI-LY10
Format: cell-based
MEASUREMENT_CONDITIONS: OCI-LY10 cells, 24 hrs, Meso Scale Discovery

Solved entries (count: 2):
[
  {
    "COMPOUND": "COc1cc2nn([C@H]3CC[C@H](CN4CC[C@@H](c5cccc6c5n(C)c(=O)n6C5CCC(=O)NC5=O)[C@H](F)C4)CC3)cc2cc1C(=O)Nc1cccc(C(F)(F)F)n1 (some centres unmarked) [I-200]",
    "DC50": "< 10 nM"
  },
  {
    "COMPOUND": "COc1ccc2c(c1N1CC3(CCN(C[C@H]4CC[C@H](c5nc6cc(C(C)(C)O)c(NC(=O)c7cncc(C#N)c7)cc6s5)CC4)CC3(F)F)C1)n(C)c(=O)n2C1CCC(=O)NC1=O (some centres unmarked) [I-412]",
    "DC50": "100 to 200 nM"
  }
]

Per the reported IRAK4 (Homo sapiens, UniProt Q9NWZ3) data, Cn1c(=O)n(C2CCC(=O)NC2=O)c2cccc([C@@H]3CCN(C[C@H]4CC[C@H](n5cc6cc(NC(=O)c7cncc(C(F)(F)F)n7)c(F)cc6n5)CC4)C[C@H]3F)c21 (some centres unmarked) [I-296] has DC50 of < 10 nM

Per the reported IRAK4 (Homo sapiens, UniProt Q9NWZ3) data, O=C1CCN(c2cc(C(=O)N3CCN(C[C@H]4CC[C@H](n5cc6cc(NC(=O)c7cncc(C(F)(F)F)n7)ccc6n5)CC4)CC3)ncc2Cl)C(=O)N1 [I-305] has DC50 of > 200 nM

Per the reported IRAK4 (Homo sapiens, UniProt Q9NWZ3) data, O=C1CCC(Nc2ccc(N3CC(CO[C@H]4CCN(C[C@H]5CC[C@H](n6cc(NC(=O)c7cnn8ccc(N9C[C@H]%10C[C@@H]9CO%10)nc78)c(C(F)F)n6)CC5)C[C@@H]4F)C3)cc2)C(=O)N1 (single isomer, unassigned) [I-85] has DC50 of 10 to 100 nM

====

MEASURED_TARGET: IRAK4 (Homo sapiens)
Construct: endogenous in cells; host or cells: OCI-LY10
MEASUREMENT_DESCRIPTION: IRAK4 MSD degradation in OCI-LY10
Format: cell-based
MEASUREMENT_CONDITIONS: OCI-LY10 cells, 24 hrs, Meso Scale Discovery
MEASURED_METRIC: DC50

[
  {
    "COMPOUND": "Cn1c(=O)n(C2CCC(=O)NC2=O)c2cccc(N3CCC4(CCN(C[C@H]5CC[C@H](n6cc7cc(NC(=O)c8cccc(C(F)(F)F)c8)ccc7n6)CC5)CC4(F)F)CC3)c21 (some centres unmarked)",
    "DC50": "10 to 100 nM"
  }
]

So for COc1cc2nn([C@H]3CC[C@H](CN4CC[C@@H](c5cccc6c5n(C)c(=O)n6C5CCC(=O)NC5=O)[C@H](F)C4)CC3)cc2cc1NC(=O)c1cccc(C(F)(F)F)c1 (some centres unmarked) , the logged DC50 turned out to be < 10 nM

So for COc1cc2nc([C@H]3CC[C@H](CN(C)[C@@H]4CCN(c5cccc6c5n(C)c(=O)n6C5CCC(=O)NC5=O)C[C@H]4F)CC3)sc2cc1NC(=O)c1cccc(C(F)(F)F)n1 (single isomer, unassigned) , the logged DC50 turned out to be 10 to 100 nM

So for COc1cc2nn([C@H]3CC[C@H](CN4CCC5(CCN(c6cccc7c6n(C)c(=O)n7C6CCC(=O)NC6=O)CC5)C(F)(F)C4)CC3)cc2cc1NC(=O)c1cncc(F)c1 (some centres unmarked) , the logged DC50 turned out to be < 10 nM

So for Cn1c(=O)n(C2CCC(=O)NC2=O)c2cccc([C@@H]3CCN(C[C@H]4CC[C@H](n5cc6cc(NC(=O)c7csc(C(F)(F)F)n7)ccc6n5)CC4)C[C@H]3F)c21 (some centres unmarked) , the logged DC50 turned out to be < 10 nM

====

MEASUREMENT_DESCRIPTION: Rodent pharmacokinetics (rat PK)
Assay type: in vivo
MEASUREMENT_CONDITIONS: po, dosed intravenously or orally by gavage, plasma, read-out: F % (bioavailability)
MEASURED_METRIC: bioavailability

Solved entries (count: 3):
[
  {
    "COMPOUND": "O=C1CCC(n2c(=O)oc3c([C@H]4CCN(C[C@H]5CC[C@H](n6cc7cc(NC(=O)c8cncc(C(F)(F)F)n8)ccc7n6)CC5)C[C@@H]4F)cccc32)C(=O)N1 (single isomer, unassigned)",
    "MEASURED_METRIC": "bioavailability",
    "RESULT_VALUE": "≤ 5%"
  },
  {
    "COMPOUND": "Cc1cncc(C(=O)Nc2cc3cn([C@H]4CC[C@H](CN5CCC6(CN(c7cccc8c7n(C)c(=O)n8C7CCC(=O)NC7=O)C6)C(F)(F)C5)CC4)nc3cc2C(C)(C)O)c1 (some centres unmarked)",
    "MEASURED_METRIC": "bioavailability",
    "RESULT_VALUE": "≤ 5%"
  },
  {
    "COMPOUND": "Cn1c(=O)n(C2CCC(=O)NC2=O)c2ccc(F)c([C@@H]3CCN(C[C@H]4CC[C@H](n5cc6cc(NC(=O)c7cncc(C(F)(F)F)n7)ccc6n5)CC4)C[C@H]3F)c21 (single isomer, unassigned)",
    "MEASURED_METRIC": "bioavailability",
    "RESULT_VALUE": "≥ 5%"
  }
]

So for COc1cc2nn([C@H]3CC[C@H](CN4CCC5(CCN(c6cccc7c(C8CCC(=O)NC8=O)nn(C)c67)CC5)C(F)(F)C4)CC3)cc2cc1NC(=O)c1cncc(C#N)c1 (some centres unmarked) , the logged bioavailability turned out to be ≤ 5%

So for COc1cc(C(=O)Nc2ccc3nn([C@H]4CC[C@H](CN5CC[C@@H](c6cccc7c6n(C)c(=O)n7C6CCC(=O)NC6=O)[C@H](F)C5)CC4)cc3c2)nc(C(F)(F)F)c1 (some centres unmarked) , the logged bioavailability turned out to be ≥ 5%
